Each recorded value in this set is attributed to patent US10752587B2.

Target: glutathione-S-transferase (GST) tagged LXRalpha LBD (ligand binding domain) (Homo sapiens, UniProt Q13133)
Construct: purchased Invitrogen pv4655
Sequence (Q13133 209-447 limits assumed): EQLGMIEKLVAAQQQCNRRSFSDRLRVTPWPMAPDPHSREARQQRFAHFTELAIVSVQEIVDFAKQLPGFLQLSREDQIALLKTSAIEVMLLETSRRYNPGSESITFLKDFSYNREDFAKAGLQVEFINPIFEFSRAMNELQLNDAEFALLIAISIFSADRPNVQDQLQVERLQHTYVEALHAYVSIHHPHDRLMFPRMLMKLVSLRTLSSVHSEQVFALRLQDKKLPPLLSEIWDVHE
Assay: LanthaScreen TR-FRET Liver X Receptor Coactivator Assay, co-activator recruitment to LXRalpha LBD
Assay type: biochemical
Settings: efficacy at max dose, in relation to reference dual agonist T0901317; read-out: LXR alpha Activity @ max dose (%)

query-smiles | units-text | Emax
CC(C)(C)OC(=O)NC1CN(C(=O)c2ccc(N3CCC(CC4CCN(C(=O)[C@](O)(c5cc(Cl)cc(Cl)c5)C(F)(F)F)CC4)CC3)cc2Cl)C1 | % | 0
CCOc1cccc([C@@](O)(C(=O)N2CCC(CC3(C)CCN(c4ccc(C(=O)N(C)C)c(C)n4)CC3)CC2)C(F)(F)F)c1 | % | 0
CC(C)Oc1cccc([C@@](O)(C(=O)N2CCC(C)(CC3CCN(c4ccc(C(=O)N(C)C)c(Cl)c4)CC3)CC2)C(F)(F)F)c1 | % | 0
CN(C)C(=O)c1ccc(N2CCC(CC3CCN(C(=O)[C@](O)(c4cccc(OC(F)F)c4)C(F)(F)F)CC3)CC2)cc1 | % | 18
CNC(=O)c1ccc(N2CCC(CC3CCN(C(=O)[C@](O)(c4cccc(F)c4)C(F)(F)F)CC3)CC2)nc1Cl | % | 58
CCOc1cccc([C@@](O)(C(=O)N2CC(CC3CCN(c4ccc(C(=O)N(C)C)c(Cl)n4)CC3)C2)C(F)(F)F)c1 | % | 8

----------
Listed here: items and their measured Emax.
Target: glutathione-S-transferase (GST) tagged LXRalpha LBD (ligand binding domain) (Homo sapiens, UniProt Q13133)
Construct: purchased Invitrogen pv4655
Experiment: LanthaScreen TR-FRET Liver X Receptor Coactivator Assay, co-activator recruitment to LXRalpha LBD
Assay type: biochemical
Details: efficacy at max dose, in relation to reference dual agonist T0901317; read-out: LXR alpha Activity @ max dose (%)
Text: […]
reported-endpoint: Emax (%)

compound | reported-endpoint | assay-result
CNC(=O)c1ccc(N2CCC(CC3CCN(C(=O)[C@](O)(c4cccc(Br)c4)C(F)(F)F)CC3)CC2)cc1Cl | Emax | 32
CN(C)C(=O)c1ccc(N2CCC(CC3CCN(C(=O)C(O)(c4cc(Cl)cc(Cl)c4)C(F)(F)F)CC3)CC2)nc1Cl (centres unmarked) | Emax | 13
Cc1ccccc1C1(C(=O)N2CCC(CC3CCN(c4ccc(C(=O)N(C)C)c(Cl)n4)CC3)CC2)CCC1 | Emax | 37
CNC(=O)c1ccc(N2CCC(CC3CCN(C(=O)C(O)(c4cc(F)cc(F)c4)C(F)(F)F)CC3)CC2)cc1Cl (centres unmarked) | Emax | 54
COc1cc(Cl)cc([C@](O)(C(=O)N2CCC(CC3CCN(c4ccc(C(=O)N(C)C)c(Cl)n4)CC3)CC2)C(F)(F)F)c1 | Emax | 10
CN(C)C(=O)c1ccc(N2CCC(CC3CCN(C(=O)C(O)(c4cccc(F)c4)C(F)F)CC3)CC2)cc1Cl (centres unmarked) | Emax | 29
CN(C)C(=O)c1ccc(N2CCC(CC3CCN(C(=O)[C@](N)(c4ccccc4)C(F)(F)F)CC3)CC2)nc1Cl | Emax | 49
CN(C)C(=O)c1ccc(N2CCC(CC3CCN(C(=O)[C@@](O)(c4ccccc4F)C(F)(F)F)CC3)CC2)nc1Cl | Emax | 45
CN(C)C(=O)c1ccc(N2CCC(CC3CN(C(=O)[C@](O)(c4ccccc4)C(F)(F)F)C3)CC2)cc1Cl | Emax | 38
CCOc1cccc([C@@](O)(C(=O)N2CCC(CC3CCN(c4ccc(C(=O)N(C)C)c(C5CC5)n4)CC3)CC2)C(F)(F)F)c1 | Emax | 6
CN(C)C(=O)c1ccc(N2CCC(CC3CCN(C(=O)[C@](O)(c4cccc(C(F)(F)F)c4)C(F)(F)F)CC3)CC2)nc1Cl | Emax | 23
CNC(=O)c1ccc(N2CCC(CC3CCN(C(=O)[C@](O)(c4cccc(C(C)C)c4)C(F)(F)F)CC3)CC2)cc1Cl | Emax | 21
CN(C)C(=O)c1ccc(N2CCC(OC3CCN(C(=O)N4CC(O)(C(F)(F)F)C4)CC3)CC2)cc1Cl | Emax | 2
CN(C)C(=O)c1ccc(N2CCC(CC3CCN(C(=O)[C@](O)(c4ccccc4)C(F)(F)F)CC3)CC2)cc1Cl | Emax | 25

----------
Biological target: glutathione-S-transferase (GST) tagged LXRalpha LBD (ligand binding domain) (Homo sapiens)
Construct: purchased Invitrogen pv4655
Assay: LanthaScreen TR-FRET Liver X Receptor Coactivator Assay, co-activator recruitment to LXRalpha LBD
Format: biochemical
Details: potency (Inflection Point, IP), co-activator recruitment to LXRalpha LBD, in relation to T0901317; read-out: LXR alpha IP
reported-endpoint: EC50 (nM)

compound | target-entity | units-text | assay-result
O=C(c1ccc(N2CCC(CC3CCN(C(=O)[C@](O)(c4ccccc4)C(F)(F)F)CC3)CC2)cc1Cl)N1CC[C@@H](CO)C1 | glutathione-S-transferase (GST) tagged LXRalpha LBD (ligand binding domain) (Homo sapiens) | nM | 459
CN(C)C(=O)c1ccc(N2CCC(CC3CCN(C(=O)[C@](O)(c4cccc(Cl)c4)C(F)(F)F)CC3)CC2)cc1Cl | glutathione-S-transferase (GST) tagged LXRalpha LBD (ligand binding domain) (Homo sapiens) | nM | 98
C[C@H]1CCCN1C(=O)c1ccc(N2CCC(CC3CCN(C(=O)[C@](O)(c4ccccc4)C(F)(F)F)CC3)CC2)cc1Cl | glutathione-S-transferase (GST) tagged LXRalpha LBD (ligand binding domain) (Homo sapiens) | nM | 331
CN(C)C(=O)c1ccc(N2CCC(CC3CCN(C(=O)[C@@](O)(c4cccc(F)c4)C(F)(F)F)CC3)CC2)nc1Cl | glutathione-S-transferase (GST) tagged LXRalpha LBD (ligand binding domain) (Homo sapiens) | nM | 922
CNC(=O)c1ccc(N2CCC(OC3CCN(C(=O)[C@](O)(c4ccccc4)C(F)(F)F)CC3)CC2)cc1Cl | glutathione-S-transferase (GST) tagged LXRalpha LBD (ligand binding domain) (Homo sapiens) | nM | 2260
CN(C)C(=O)c1ccc(N2CCC(OC3CCN(C(=O)C(O)(c4cccc(C(F)(F)F)c4)C(F)(F)F)CC3)CC2)cc1Cl (stereo not drawn) | glutathione-S-transferase (GST) tagged LXRalpha LBD (ligand binding domain) (Homo sapiens) | nM | 695

----------
Target: glutathione-S-transferase (GST) tagged LXRbeta LBD (ligand binding domain) (Homo sapiens, UniProt P55055)
Construct: purchased Invitrogen pv4658.pps
Assay: LanthaScreen TR-FRET Liver X Receptor Coactivator Assay, co-activator recruitment to LXRbeta LBD
Assay type: biochemical
Conditions: read-out: LXR beta Activity @ max dose (%)

compound | Emax
CN(C)C(=O)c1ccc(N2CCC(CC3CCN(C(=O)C(O)(c4ccccc4)C4CCCC4)CC3)CC2)nc1Cl (stereo not shown) | 62%
CN(C)C(=O)c1ccc(N2CCC(CC3CCN(C(=O)C(O)(c4ccccc4)c4ccsc4)CC3)CC2)nc1Cl (stereo not shown) | 23%
COc1cccc([C@@](O)(C(=O)N2CCC(SC3CCN(c4ccc(C(=O)N(C)C)c(Cl)c4)CC3)CC2)C(F)(F)F)c1 | 56%
CN(C)C(=O)c1ccc(N2CCC(CC3CCN(C(=O)C(O)(c4ccccc4)C4CCCCC4)CC3)CC2)nc1Cl (stereo not shown) | 37%
COc1cccc([C@@](O)(C(=O)N2CCC(CC3(C)CCN(c4ccc(C(=O)N(C)C)c(Cl)c4)CC3)CC2)C(F)(F)F)c1 | 63%
COc1cccc([C@@](O)(C(=O)N2CCC(CC3CCN(c4ccc(C(=O)N(C)C)c(Cl)c4)CC3)CC2)C2CC2)c1 | 19%
CN(C)C(=O)c1ccc(N2CCC(CC3CCN(C(=O)C(O)(c4ccccc4)C4CC4)CC3)CC2)nc1Cl (stereo not shown) | 74%

----------
Listed here: items and their measured log10 EC50.
Target: glutathione-S-transferase (GST) tagged LXRbeta LBD (ligand binding domain) (Homo sapiens)
Construct: purchased Invitrogen pv4658.pps
Sequence (P55055 222-460 limits assumed): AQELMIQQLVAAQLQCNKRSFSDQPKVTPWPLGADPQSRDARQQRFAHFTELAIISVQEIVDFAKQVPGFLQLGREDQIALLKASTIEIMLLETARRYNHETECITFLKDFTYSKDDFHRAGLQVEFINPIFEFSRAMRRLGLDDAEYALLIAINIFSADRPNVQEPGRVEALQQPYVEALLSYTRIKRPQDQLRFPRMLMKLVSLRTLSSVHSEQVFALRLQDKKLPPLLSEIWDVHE
Test: LanthaScreen TR-FRET Liver X Receptor Coactivator Assay, co-activator recruitment to LXRbeta LBD
Type: biochemical
Details: co-activator recruitment to GST-LXRbeta LBD, TR-FRET; read-out: LXR beta IP (Inflection Point, potency)
reported-endpoint: log10 EC50 (log10 of the value in nM)

molecule | reported-endpoint | assay-result
NC(=O)c1ccc(N2CCC(CC3CCN(C(=O)C(O)(c4cc(F)cc(Cl)c4)C(F)(F)F)CC3)CC2)cc1Cl (stereo not shown) | log10 EC50 | 0.90
CN(C)C(=O)c1ccc(N2CCC(CC3CCN(S(=O)(=O)c4cccc(OC(F)(F)F)c4)CC3)CC2)cc1Cl | log10 EC50 | 2.13
CN(C)C(=O)c1ccc(N2CCC(CC3CN(S(=O)(=O)c4ccccc4)C3)CC2)nc1Cl | log10 EC50 | 1.64
CN(C)C(=O)c1ccc(N2CCC(CC3CCN(S(=O)(=O)c4ccc(Cl)s4)CC3)CC2)cc1Cl | log10 EC50 | 2.36
CN(C)C(=O)c1ccc(N2CCC(CC3CCN(S(=O)(=O)c4cccs4)CC3)CC2)cc1Cl | log10 EC50 | 1.41
COc1cccc(CS(=O)(=O)N2CC(CC3CCN(c4ccc(C(=O)N(C)C)c(Cl)n4)CC3)C2)c1 | log10 EC50 | 3.18
CC(C)Oc1cccc([C@@](O)(C(=O)N2CCC(CC3CCN(c4ccc(C(N)=O)c(Cl)c4)CC3)CC2)C(F)(F)F)c1 | log10 EC50 | 0.78
